- assayedSystem: HLA-A0101 (Homo sapiens, UniProt P04439, A114D/A174V/A182V/D101N/D185E/E176A/E190D/L180R/Q94H/R68K/S129P/T187R/V100A/V91M/W191G)
- Construct: expressed in transfected cells; host or cells: HMy2.CIR
- assayName: Peptide competitive binding assay, transfected HMy2.CIR cells, reference YLEPAK(FITC)AKY
- testSettings: HLA-A0101 HMy2.CIR cells; competitor peptide 5μM; 24 hours; flow cytometry
Residues, ends and D or L forms follow the SMILES beside them.
reportedProperty: inhibition at 5 µM (%)
Number only, in %; omit the unit.

Past entries and their recorded results:
compound	unitLabel	reportedValue
CC(C)C[C@H](NC(=O)[C@H](CCC(=O)O)NC(=O)[C@H](CCCNC(=N)N)NC(=O)[C@H](CO)NC(=O)[C@H](C)N)C(=O)N[C@H](C(=O)N[C@H](C(=O)N[C@@H](CO)C(=O)N[C@@H](Cc1ccc(O)cc1)C(=O)O)C(C)C)C(C)C [Epitope P88] (H-ASRELVVSY-OH; N-terminus and C-terminus assumed)	%	9
CSCC[C@H](NC(=O)[C@@H](N)CCSC)C(=O)N[C@@H](Cc1c[nH]c2ccccc12)C(=O)N[C@@H](Cc1ccccc1)C(=O)N[C@@H](Cc1c[nH]c2ccccc12)C(=O)NCC(=O)N1CCC[C@H]1C(=O)N[C@@H](CO)C(=O)N[C@@H](CC(C)C)C(=O)O [Epitope P71] (H-MMWFWGPSL-OH; N-terminus and C-terminus assumed)	%	9
CSCC[C@H](NC(=O)[C@@H](N)CCSC)C(=O)N[C@@H](Cc1c[nH]c2ccccc12)C(=O)N[C@@H](Cc1ccc(O)cc1)C(=O)N[C@@H](Cc1c[nH]c2ccccc12)C(=O)NCC(=O)N1CCC[C@H]1C(=O)N[C@@H](CO)C(=O)N[C@@H](CC(C)C)C(=O)N[C@@H](Cc1ccc(O)cc1)C(=O)O [Epitope P108]	%	11.2

Qu. # return recorded inhibition at 5 µM for input CSCC[C@H](NC(=O)[C@@H](N)CCSC)C(=O)N[C@@H](Cc1c[nH]c2ccccc12)C(=O)N[C@@H](Cc1ccc(O)cc1)C(=O)N[C@@H](Cc1c[nH]c2ccccc12)C(=O)NCC(=O)N1CCC[C@H]1C(=O)N[C@@H](CO)C(=O)N[C@@H](CC(C)C)C(=O)O [Epitope P72]
Ans. 9

Qu. Return inhibition at 5 µM for the following compound: CC[C@H](C)[C@H](NC(=O)[C@H](CC(C)C)NC(=O)[C@H](CCCCN)NC(=O)[C@H](C)NC(=O)CNC(=O)[C@H](CO)NC(=O)[C@H](CCCNC(=N)N)NC(=O)[C@H](CO)NC(=O)[C@@H](N)CCCNC(=N)N)C(=O)O [Epitope P89] (H-RSRSGAKLI-OH; N-terminus and C-terminus assumed)
Ans. 10.1
